- protocol.details: non-covalent RecA intein splicing inhibitors, dose response, biochemical, cell-free, fluorescence, secondary screen (AID 449750)
Calls of active or inactive are those of the source. No rule for the calls is given here.
AC50 values for the compounds below.
property.name: AC50

>>> value_observed("Cc1ccc(Sc2ncnc3onc(C)c23)cc1")
"> 38 µM (inactive)"
>>> value_observed("Nc1ccc(N2CCCCC2)c2nonc12")
"15.9 µM"
>>> value_observed("COC(=O)c1cc([N+](=O)[O-])c(-n2ccnc2)c([N+](=O)[O-])c1")
"> 38 µM (inactive)"
>>> value_observed("O=C(Oc1ccc2ccccc2c1)c1ccco1")
"> 38 µM (inactive)"
>>> value_observed("O=C(O)COc1ccccc1C(Nc1cccnc1)c1cc(Cl)c2cccnc2c1O (stereo unspecified)")
"6.01 µM"
>>> value_observed("N#CC1=C(N)C(C#N)(C#N)[C@H](c2c(F)cccc2F)[C@H]2CC3(CC=C12)OCCO3")
"> 38 µM (inactive)"
>>> value_observed("O=C1CS/C(=C\\[N+](=O)[O-])N1c1ccc(OC(F)(F)F)cc1")
"> 38 µM (inactive)"
>>> value_observed("O=C(CCCN1C(=O)/C(=C/c2ccccc2)SC1=S)Nc1ccc(C(=O)O)c(O)c1")
"33.8 µM"
>>> value_observed("O=C(CCl)N1CCCC1c1ccc2c(c1)OCCO2 (stereo unspecified)")
"4.86 µM"
>>> value_observed("CCOc1cc(/C=C2/C(=O)N(c3ccccc3)N=C2C)ccc1OC(=O)c1ccco1")
"3.17 µM"
>>> value_observed("Cc1cc(C)c(S(=O)(=O)/N=C2\\C=C(Nc3ccc(C(=O)O)cc3)C(=O)c3ccccc32)c(C)c1")
"0.669 µM"
>>> value_observed("CCN(CC)CCN1C(=O)C(O)=C(C(C)=O)C1c1ccccc1[N+](=O)[O-] (stereo unspecified)")
"37.7 µM"
>>> value_observed("CCOC(=O)C1CCN(C(=O)c2c(C)oc3c2C(=O)c2ccccc2C3=O)CC1")
"21 µM"
>>> value_observed("Cc1ccc(/C=C2\\SC(N3CCN(C(c4ccccc4)c4ccccc4)CC3)=NC2=O)o1")
"4.48 µM"
>>> value_observed("O=[N+]([O-])c1ccc(Sc2cccc[n+]2[O-])c2nonc12")
"9.27 µM"
>>> value_observed("CCOc1cc(/C=C(\\C#N)C(=O)Nc2cccc(C(=O)O)c2)cc(Br)c1OC(=O)c1ccc(OC)cc1")
"8.34 µM"
>>> value_observed("Cc1ccc(SCc2[nH]nc3c2C2(CCSCC2)C(C#N)=C(N)O3)cc1")
"30.4 µM"
>>> value_observed("O=C(Nc1ncc([N+](=O)[O-])s1)c1ccco1")
"> 38 µM (inactive)"
>>> value_observed("Cc1[nH]nc2c1C(c1ccc(OC(=O)c3ccco3)cc1)C(C#N)=C(N)O2 (stereo unspecified)")
"> 38 µM (inactive)"
>>> value_observed("Cc1ccccc1CS(=O)(=O)c1ncc(Cl)c(C(=O)Nc2ccc(F)cc2)n1")
"> 38 µM (inactive)"
>>> value_observed("O=C(Oc1ccc(N2C(=O)CCC2=O)cc1)c1ccco1")
"0.433 µM"

###

- protocol.details: non-covalent RecA intein splicing inhibitors, dose response, biochemical, cell-free, fluorescence, secondary screen (AID 449750)
Activity calls are given as the source filed them. No rule for the calls is given here.
Outcomes: TRUE (active), FALSE (inactive)

>>> classification("CCS(=O)(=O)C1=NN2C(=N)/C(=C\\c3ccc(OC(=O)c4ccco4)cc3)C(=O)N=C2S1")
"FALSE"
>>> classification("c1ccc(CNc2nc(NCc3ccccc3)c3ccccc3n2)cc1")
"TRUE"
>>> classification("O=C1C=C(Nc2ccccc2C(=O)O)c2ccccc2C1=O")
"TRUE"
>>> classification("Cc1nn(-c2ccccc2)c2c1C1(C(=O)N3c4c(cccc41)C(C)CC3(C)C)C(C#N)=C(N)O2 (stereo not given)")
"TRUE"
>>> classification("COC(=O)Cc1[nH]nc2c1C(c1c[nH]c3ccccc13)C(C#N)=C(N)O2 (stereo not given)")
"FALSE"
